Measured Survival rate of Vcap cells values are reported for all entries that follow.
# System: Vcap cells
# Protocol Text: CTG cell proliferation assay on Vcap cells (compounds alone or in combination, 5 days)
# Assay type: cell-based
# Conditions: tested compound 1 μM in combination with 1 μM Enzalutamide
Quantity Name: Survival rate of Vcap cells

> print(dat)
                                   molecule  test.system                quantity.name  value.measured
1  Nc1cc(F)cc2c1CN(C1CCC(=O)NC1=O)C2=O (stereo not shown)   Vcap cells  Survival rate of Vcap cells           25.2%
2  [2H][C@]1(N2Cc3c(N)cc(F)cc3C2=O)CCC(=O)NC1=O   Vcap cells  Survival rate of Vcap cells           27.5%
3  [2H][C@]1(N2Cc3c(OCc4ccc(CN5CCOCC5)cc4F)cccc3C2=O)CCC(=O)NC1=O   Vcap cells  Survival rate of Vcap cells           35.8%
4   Nc1cc(F)cc2c1CN([C@H]1CCC(=O)NC1=O)C2=O   Vcap cells  Survival rate of Vcap cells           41.1%
5  [2H][C@@]1(N2Cc3c(N)cc(F)cc3C2=O)CCC(=O)NC1=O   Vcap cells  Survival rate of Vcap cells           40.5%
6  [2H]C1(N2Cc3c(N)cc(F)cc3C2=O)CCC(=O)NC1=O (stereo not shown)   Vcap cells  Survival rate of Vcap cells           41.2%
7  Nc1cc(F)cc2c1CN([C@@H]1CCC(=O)NC1=O)C2=O   Vcap cells  Survival rate of Vcap cells           42.7%
